System: MCF-10A
assayProtocol: Inhibition of MPC in human MCF-10A cells assessed as increase in cellular lactate production at 10 uM incubated for 24 to 30 hrs
Format: cell-based
statedConditions: time 24-30 hrs
Active and inactive are the calls of the source.
assayMetric: inhibition

Illustrative cases are given below, each with its answer.
| compound | inhibition |
| --- | --- |
| N#C/C(=C\c1cn(Cc2cc(C(F)(F)F)cc(C(F)(F)F)c2)c2ccccc12)C(=O)N1CCOCC1 | Active |
| N#C/C(=C\c1cn(Cc2cc(F)cc(F)c2)c2ccc(F)cc12)C(=O)O | Active |
| N#C/C(=C\c1cn(Cc2cc(F)cc(F)c2)c2ccccc12)C(=O)O | Active |
| Cc1ccc(/C=C(\C#N)C(=O)O)cc1F | inactive |

Returns the measured inhibition for the input compound. Input: COc1ccc(-n2cc(/C=C(\C#N)C(=O)O)c3ccccc32)cc1
Active

Returns the measured inhibition for the input compound. Input: N#C/C(=C\c1cccc(C(F)(F)F)c1Cl)C(=O)O
inactive

Returns the measured inhibition for the input compound. Input: CCOP(=O)(OCC)/C(C#N)=C/c1cn(Cc2cc(C(F)(F)F)cc(C(F)(F)F)c2)c2ccccc12
Active

Returns the measured inhibition for the input compound. Input: N#C/C(=C\c1cn(Cc2cc(C(F)(F)F)cc(C(F)(F)F)c2)c2cccc(F)c12)C(=O)O
Active

Returns the measured inhibition for the input compound. Input: N#C/C(=C\c1cc(C(F)(F)F)cc(C(F)(F)F)c1)C(=O)O
inactive

----------
Test system: MCF-10A
assayProtocol: Inhibition of MPC in human MCF-10A cells assessed as increase in cellular lactate production at 10 uM incubated for 24 to 30 hrs
Assay type: cell-based
statedConditions: time 24-30 hrs
Calls of active or inactive are those of the source.
Response enum: active, inactive

How did this test come out for N#C/C(=C\c1cn(Cc2cc(C(F)(F)F)cc(C(F)(F)F)c2)c2cnccc12)C(=O)O ?
active

How did this test come out for N#C/C(=C\c1ccc(F)c(F)c1)C(=O)O ?
inactive

How did this test come out for CCOP(=O)(OCC)/C(C#N)=C/c1cn(Cc2cc(C(F)(F)F)cc(C(F)(F)F)c2)c2ncccc12 ?
active

How did this test come out for N#C/C(=C\c1cn(Cc2cc(C(F)(F)F)cc(C(F)(F)F)c2)c2c(Cl)cccc12)C(=O)O ?
inactive

How did this test come out for CCOC(=O)/C(C#N)=C/c1cn(Cc2cc(C(F)(F)F)cc(C(F)(F)F)c2)c2ccccc12 ?
active

How did this test come out for N#C/C(=C\c1cn(Cc2cc(C(F)(F)F)cc(C(F)(F)F)c2)c2ccccc12)C(N)=O ?
active

How did this test come out for CCOC(=O)/C(C#N)=C/c1cn(Cc2ccccc2)c2ccccc12 ?
active

How did this test come out for CCOC(=O)/C(C#N)=C/c1cn(-c2ccccc2OC)c2ccccc12 ?
active

How did this test come out for CCOC(=O)C(=Cc1cn(-c2ccccc2)c2ccccc12)C(=O)O (mixture of isomers) ?
inactive

----------
Tested on: MCF-10A
assayProtocol: Inhibition of MPC in human MCF-10A cells assessed as increase in cellular lactate production at 10 uM incubated for 24 to 30 hrs
Format: cell-based
statedConditions: time 24-30 hrs
Active and inactive are the calls of the source.
Response enum: active, inactive

How did this test come out for CCOC(=O)/C(C#N)=C/c1cn(-c2ccccc2)c2ccccc12 ?
inactive

How did this test come out for N#C/C(=C\c1cn(Cc2cc(C(F)(F)F)cc(C(F)(F)F)c2)c2ccc(Cl)cc12)C(=O)O ?
inactive

How did this test come out for N#C/C(=C\c1ccc(F)c(C(F)(F)F)c1)C(=O)O ?
inactive

How did this test come out for N#C/C(=C\c1cn(-c2ccccc2)c2ccccc12)C(=O)O ?
active

How did this test come out for N#C/C(=C\c1cn(Cc2cc(F)cc(F)c2)c2cc(F)ccc12)C(=O)O ?
active

How did this test come out for CCOC(=O)/C(C#N)=C/c1cn(Cc2ccc(F)cc2)c2ccccc12 ?
active

How did this test come out for N#C/C(=C\c1cn(Cc2cc(C(F)(F)F)cc(C(F)(F)F)c2)c2ccccc12)P(=O)(O)O ?
inactive

How did this test come out for CCOC(=O)/C(C#N)=C/c1cn(Cc2cc(C(F)(F)F)cc(C(F)(F)F)c2)c2cccc(Br)c12 ?
active

How did this test come out for N#C/C(=C\c1cn(Cc2cc(C(F)(F)F)cc(C(F)(F)F)c2)c2cccc(OCc3ccccc3)c12)C(=O)O ?
inactive

How did this test come out for N#C/C(=C\c1cn(Cc2ccccc2)c2ccccc12)C(=O)O ?
active

----------
Test system: MCF-10A
assayProtocol: Inhibition of MPC in human MCF-10A cells assessed as increase in cellular lactate production at 10 uM incubated for 24 to 30 hrs
Format: cell-based
statedConditions: time 24-30 hrs
Activity calls are given as the source filed them.
assayMetric: inhibition

Illustrative cases are given below, each with its answer.
| compound | assayMetric | recordedMeasurement |
| --- | --- | --- |
| CC(C)(C)OC(=O)/C(C#N)=C/c1cn(Cc2cc(C(F)(F)F)cc(C(F)(F)F)c2)c2ccccc12 | inhibition | inactive |
| N#C/C(=C\c1cn(Cc2cc(C(F)(F)F)cc(C(F)(F)F)c2)c2cccc(C(=O)O)c12)C(=O)O | inhibition | inactive |
| N#C/C(=C\c1cn(Cc2ccc(F)c(F)c2)c2cc(F)ccc12)C(=O)O | inhibition | Active |
| N#C/C(=C\c1ccc(O)cc1)C(=O)O | inhibition | inactive |
| N#C/C(=C\c1cn(Cc2cc(C(F)(F)F)cc(C(F)(F)F)c2)c2cccc(Cl)c12)C(=O)O | inhibition | Active |

Returns the measured inhibition for the input compound. Input: N#C/C(=C\c1ccc(F)cc1F)C(=O)O
inactive

----------
Test system: MCF-10A
assayProtocol: Inhibition of MPC in human MCF-10A cells assessed as increase in cellular lactate production at 10 uM incubated for 24 to 30 hrs
Assay type: cell-based
statedConditions: time 24-30 hrs
Calls of active or inactive are those of the source.
Response enum: active, inactive

How did this test come out for N#C/C(=C\c1cn(Cc2cc(C(F)(F)F)cc(C(F)(F)F)c2)c2cc(OCc3ccccc3)ccc12)C(=O)O ?
inactive

How did this test come out for COC(=O)/C(C#N)=C/c1cn(Cc2cc(C(F)(F)F)cc(C(F)(F)F)c2)c2ccccc12 ?
inactive

How did this test come out for CCOC(=O)/C(C#N)=C/c1cn(C(=O)Cc2cc(C(F)(F)F)cc(C(F)(F)F)c2)c2ccccc12 ?
inactive

How did this test come out for N#C/C(=C\c1ccc(C(F)(F)F)cc1)C(=O)O ?
inactive

How did this test come out for N#C/C(=C\c1cn(Cc2cc(C(F)(F)F)cc(C(F)(F)F)c2)c2c(F)cccc12)C(=O)O ?
active

How did this test come out for N#C/C(=C\c1ccccc1F)C(=O)O ?
inactive

How did this test come out for CCOC(=O)/C(C#N)=C/c1cn(Cc2cc(F)cc(F)c2)c2ccccc12 ?
active

How did this test come out for CCOC(=O)/C(C#N)=C/c1cn(Cc2cc(C(F)(F)F)cc(C(F)(F)F)c2)c2cccc(F)c12 ?
active

How did this test come out for CCOC(=O)/C(C#N)=C/c1cn(-c2ccc(OC)cc2)c2ccccc12 ?
active

How did this test come out for CCOC(=O)/C(C#N)=C/c1c[nH]c2ccccc12 ?
inactive

How did this test come out for N#C/C(=C\c1cn(Cc2ccc(F)c(F)c2)c2ccc(F)cc12)C(=O)O ?
active

How did this test come out for N#C/C(=C\c1cn(Cc2cc(C(F)(F)F)cc(C(F)(F)F)c2)c2cccnc12)C(=O)O ?
active

How did this test come out for CCOC(=O)/C(C#N)=C/c1cn(Cc2cc(C(F)(F)F)cc(C(F)(F)F)c2)c2ncccc12 ?
active

How did this test come out for N#CC(Cc1cn(-c2ccccc2)c2ccccc12)C(=O)O (stereo unspecified) ?
inactive

How did this test come out for N#C/C(=C\c1cn(Cc2cc(C(F)(F)F)cc(C(F)(F)F)c2)c2nccc(Cl)c12)C(=O)O ?
active

How did this test come out for N#C/C(=C\c1c[nH]c2ccccc12)C(=O)O ?
inactive

How did this test come out for N#C/C(=C\c1ccc(F)cc1)C(=O)O ?
inactive

How did this test come out for COc1cccc2c1c(/C=C(\C#N)C(=O)O)cn2Cc1cc(C(F)(F)F)cc(C(F)(F)F)c1 ?
active

How did this test come out for N#C/C(=C\c1cn(Cc2cc(C(F)(F)F)cc(C(F)(F)F)c2)c2cccc(C#N)c12)C(=O)O ?
active

How did this test come out for N#C/C(=C\c1ccccc1)C(=O)O ?
inactive

How did this test come out for CCOC(=O)/C(C#N)=C/c1cn(Cc2ccc(F)c(F)c2)c2ccccc12 ?
active

How did this test come out for N#C/C(=C\c1cn(Cc2cc(C(F)(F)F)cc(C(F)(F)F)c2)c2cc(Cl)ccc12)C(=O)O ?
inactive

How did this test come out for N#C/C(=C\c1cn(Cc2cc(C(F)(F)F)cc(C(F)(F)F)c2)c2ncccc12)C(=O)O ?
active

How did this test come out for N#CC(C#N)=Cc1cn(-c2ccccc2)c2ccccc12 ?
inactive

How did this test come out for N#C/C(=C\c1cn(Cc2cc(C(F)(F)F)cc(C(F)(F)F)c2)c2nccc(Br)c12)C(=O)O ?
active

How did this test come out for N#C/C(=C\c1cn(Cc2ccc(F)c(F)c2)c2ccccc12)C(=O)O ?
active
